- assay name: Toxicity liver stage against HepG2, at 10uM
- Assay type: cell-based
- Design: test concentration 10 uM, cell line HepG2-A16-CD81EGFP
- cond: human, HepG2-A16-CD81EGFP cells; read-out: INHIBITION
value kind: cytotoxicity at 10 µM (%)
Give the value in % but do not write % after it.

Here's what some known entries look like.
In [3]: df
Out[3]:
                                   molecule  measured
0  CNC(=O)C1CCCCN1C(=O)CCn1cnc2sccc2c1=O (configuration not stated)     -7.18
1  Cc1noc(C)c1CCC(=O)NC(C)c1nnc2n1CCC2 (configuration not stated)     -3.39
2            CS(=O)(=O)c1ccc(NCc2ccccc2)cn1      13.2
3      CCOCc1ncn2c1CN(C(=O)Nc1cccc(F)c1)CC2      1.03
4    CCc1nccn1CCCNc1nccc(-c2c(C)nn(C)c2C)n1      2.96
5  CCc1nccn1C1CCCN(C(=O)c2ccc3nnc(C)n3c2)C1 (configuration not stated)     -8.95
6  CCCn1cc(C(=O)NC(CC(=O)O)c2ccccc2F)c(C)n1 (configuration not stated)     -43.9
7  Cc1nccc(C(=O)N2CCCC2c2c(C)nn(C)c2C)n1 (configuration not stated)     -2.42

Ask: Please report the recorded cytotoxicity at 10 µM for Cc1cc(C)n(CC2CCCCN2CCc2ccncc2)n1 (configuration not stated) .
Reply: -7.07

Ask: Please give the measured cytotoxicity at 10 µM for this molecule: "CN(C)c1cccc(C(=O)N2C[C@@H]3CC[C@H]2CN(C(=O)C2CCC2)C3)c1"
Reply: -0.69

Ask: Which cytotoxicity at 10 µM reading was recorded for the molecule "Cc1ccc(NC(=O)Nc2c[nH]c(=O)[nH]c2=O)c(C)c1" ?
Reply: 18.2

Ask: Suppose we examine the molecule "CS(=O)(=O)NCCCn1ccc2ccccc21" ; what cytotoxicity at 10 µM value has been reported?
Reply: 4.77
